Just for reference, patent US10676429B2 is where these values come from.

- METHOD NOTES: Cytotoxicity in HepG2 cells, 4 days, Resazurin assay
- APPLIED CONDITIONS: human, HepG2 cells
As shown below, each of these compounds has a reported CC50 at 4 days value.

Cc1c(Br)cc(S(=O)(=O)N[C@H]2CCOC2)c(F)c1C(=O)Nc1ccc(F)c(F)c1 [Compound 187] | > 25 µM
O=C(Nc1ccc(F)cc1)c1cccc(S(=O)(=O)NC(=O)C2CCCCC2)c1 [Compound 56] | > 100 µM
COc1cc(NC(=O)c2cccc(S(=O)(=O)NC3(C)COC3)c2)ccc1F [Compound 109] | > 25 µM

Could you now consider this next compound?
Request: Answer with reported CC50 at 4 days of Cc1cc(NC(=O)c2cccc(S(=O)(=O)NC3CCS(=O)(=O)C3)c2)ccc1F (stereo not shown) [Compound 140]
Result: > 25 µM
